# conditions: in NMP, 293.15 K
observable: solubility (mole fraction)
Give only the figure.

Prompt: Return reported solubility (mole fraction); argument: "CCc1cc(C(N)=S)ccn1"
Response: 0.212

###

# conditions: in 2-methoxyethanol, 293.15 K
observable: solubility (mole fraction)
Give only the figure.

Prompt: Return reported solubility (mole fraction); argument: "CCc1cc(C(N)=S)ccn1"
Response: 0.0494

###

# conditions: in 2-methoxyethanol, 278.15 K
observable: solubility (mole fraction)
Give only the figure.

Prompt: Return reported solubility (mole fraction); argument: "CCc1cc(C(N)=S)ccn1"
Response: 0.0343

###

# conditions: in isopropanol, 318.15 K
observable: solubility (mole fraction)
Give only the figure.

Prompt: Return reported solubility (mole fraction); argument: "CCc1cc(C(N)=S)ccn1"
Response: 0.0143

###

# conditions: in DMAc, 293.15 K
observable: solubility (mole fraction)
Give only the figure.

Prompt: Return reported solubility (mole fraction); argument: "CCc1cc(C(N)=S)ccn1"
Response: 0.189

###

# conditions: in methanol, 283.15 K
observable: solubility (mole fraction)

Prompt: Return reported solubility (mole fraction); argument: "CCc1cc(C(N)=S)ccn1"
Response: 0.0063

###

# conditions: in DMF, 313.15 K
observable: solubility (mole fraction)
Give only the figure.

Prompt: Return reported solubility (mole fraction); argument: "CCc1cc(C(N)=S)ccn1"
Response: 0.185

###

# conditions: in DMSO, 293.15 K
observable: solubility (mole fraction)
Give only the figure.

Prompt: Return reported solubility (mole fraction); argument: "CCc1cc(C(N)=S)ccn1"
Response: 0.187

###

# conditions: in DMAc, 318.15 K
observable: solubility (mole fraction)
Give only the figure.

Prompt: Return reported solubility (mole fraction); argument: "CCc1cc(C(N)=S)ccn1"
Response: 0.245

###

# conditions: in acetone, 303.15 K
observable: solubility (mole fraction)

Prompt: Return reported solubility (mole fraction); argument: "CCc1cc(C(N)=S)ccn1"
Response: 0.0124

###

# conditions: in ethyl acetate, 313.15 K
observable: solubility (mole fraction)
Give only the figure.

Prompt: Return reported solubility (mole fraction); argument: "CCc1cc(C(N)=S)ccn1"
Response: 0.0265

###

# conditions: in 2-methoxyethanol, 283.15 K
observable: solubility (mole fraction)
Give only the figure.

Prompt: Return reported solubility (mole fraction); argument: "CCc1cc(C(N)=S)ccn1"
Response: 0.0387

###

# conditions: in DMF, 298.15 K
observable: solubility (mole fraction)
Give only the figure.

Prompt: Return reported solubility (mole fraction); argument: "CCc1cc(C(N)=S)ccn1"
Response: 0.148

###

# conditions: in 2-methoxyethanol, 313.15 K
observable: solubility (mole fraction)
Give only the figure.

Prompt: Return reported solubility (mole fraction); argument: "CCc1cc(C(N)=S)ccn1"
Response: 0.075

###

# conditions: in ethyl acetate, 288.15 K
observable: solubility (mole fraction)
Give only the figure.

Prompt: Return reported solubility (mole fraction); argument: "CCc1cc(C(N)=S)ccn1"
Response: 0.0122

###

# conditions: in DMF, 303.15 K
observable: solubility (mole fraction)
Give only the figure.

Prompt: Return reported solubility (mole fraction); argument: "CCc1cc(C(N)=S)ccn1"
Response: 0.157

###

# conditions: in DMSO, 308.15 K
observable: solubility (mole fraction)
Give only the figure.

Prompt: Return reported solubility (mole fraction); argument: "CCc1cc(C(N)=S)ccn1"
Response: 0.228

Origin of measurements: BigSolDB 2.1
